target: Thyrotropin receptor (Homo sapiens); test: qHTS assay to identify small molecule antagonists of the thyroid stimulating hormone receptor (TSHR) signaling pathway (AID 1259385); conditions: TSHR-HEK293 cAMP HTRF, TSH-stimulated antagonist mode; series mostly up to 92.4 µM; also: nearly all actives have a fitted effect of over 20% in size
Records with an inconclusive call do not appear. Active and inactive are the calls of the source. Calls follow the shape of the full dose curve.
Returns: one label drawn from active, inactive

Worked examples follow.
O=Cc1ccccc1; inactive
c1cc[n+]2c(c1)-c1cccc[n+]1CC2; inactive
CCNS(=O)(=O)C(F)(F)C(F)(F)C(F)(F)C(F)(F)C(F)(F)C(F)(F)C(F)(F)C(F)(F)F; inactive
CCN(CC)C(=S)S; inactive
O=C(N[C@@H]1N=C(c2ccccc2F)c2cccc3c2N(CC3)C1=O)c1cc2ccccc2[nH]1; inactive

Asked: Please indicate how the test categorized Oc1ccc(Cl)c(Cl)c1 .
Given back: inactive

Asked: How did this test come out for CCCCON=O ?
Given back: inactive

Asked: How was CCN1CCC2(CC1)COc1cc3c(cc12)N(C(=O)c1ccc(-c2ccc(-c4nnc(C)o4)cc2C)cc1)CC3 classified in this test?
Given back: active
